System: C. neoformans
Type: cell-based, Cryptococcus neoformans
Conditions: 72 h
Where a SMILES comes first, the peptide text is derived from it. [ ]: non-standard residue; d: D form. The star is where a group is joined. Gly(Nα-4-Cl-benzyl) = O=C(O)CNCc1ccc(Cl)cc1; N(tridecyl)Gly = CCCCCCCCCCCCCNCC(=O)O; NBzl(4-I)Gly = O=C(O)CNCc1ccc(I)cc1; Gly(N-2-aminoethyl) = NCCNCC(=O)O; X2 = CCCCCCCCN(CCCCCCCC)CC(=O)*; Gly(N-cHex) = O=C(O)CNC1CCCCC1; Gly(N-cPent) = O=C(O)CNC1CCCC1; X1 = CCCCCCN(CCCCCC)CC(=O)*; N(iPr)Gly = CC(C)NCC(=O)O; Nlys = NCCCCNCC(=O)O
For each entry below, report its C. neoformans MIC value.
Numbers only here, please. The scale is µg/mL.

// fetch C. neoformans MIC; item: CCCCCCCCCCCCCNCC(=O)N(CC(=O)N(CCCCN)CC(=O)N(CCN)CC(=O)N(CC(N)=O)C(C)C)C(C)C [Compound 8] (H-[N(tridecyl)Gly][N(iPr)Gly][Nlys][Gly(N-2-aminoethyl)][N(iPr)Gly]-NH2) ; system: C. neoformans
25

Write C. neoformans MIC of CCCCCCCCCCCCCNCC(=O)N(CCCCN)CC(=O)N(CC(=O)N(CC(=O)N(CCN)CC(N)=O)C1CCCCC1)C1CCCCC1 [Compound 3] (H-[N(tridecyl)Gly][Nlys][Gly(N-cHex)][Gly(N-cHex)][Gly(N-2-aminoethyl)]-NH2) ; system used: C. neoformans
3.13

Given CCCCCCN(CCCCCC)CC(=O)N(CC(=O)N(CCCCN)CC(=O)N(CCN)CC(=O)N(CC(N)=O)C1CCCCC1)C1CCCCC1 [Compound 6] (X1-[Gly(N-cHex)][Nlys][Gly(N-2-aminoethyl)][Gly(N-cHex)]-NH2) , report its C. neoformans MIC on C. neoformans.
100

Report measured C. neoformans MIC on C. neoformans; entry: CCCCCCCCCCCCCNCC(=O)N(CC(=O)N(CCCCN)CC(=O)N(CCN)CC(=O)N(CC(N)=O)C1CCCC1)C1CCCC1 [Compound 11] (H-[N(tridecyl)Gly][Gly(N-cPent)][Nlys][Gly(N-2-aminoethyl)][Gly(N-cPent)]-NH2)
6.25

Give reported C. neoformans MIC for CCCCCCCCCCCCCNCC(=O)N(CC(=O)N(CCCCN)CC(=O)N(CCCCN)CC(=O)N(CC(N)=O)C1CCCCC1)C1CCCCC1 [Compound 2] (H-[N(tridecyl)Gly][Gly(N-cHex)][Nlys][Nlys][Gly(N-cHex)]-NH2) (C. neoformans)
3.13

Recall the reported C. neoformans MIC of CCCCCCCCCCCCCNCC(=O)N(CC(=O)N(CCCCN)CC(=O)N(CCN)CC(=O)N(CC(N)=O)Cc1ccc(Cl)cc1)Cc1ccc(Cl)cc1 [Compound 18] (H-[N(tridecyl)Gly][Gly(Nα-4-Cl-benzyl)][Nlys][Gly(N-2-aminoethyl)][Gly(Nα-4-Cl-benzyl)]-NH2) when tested on C. neoformans.
3.13

Look up C. neoformans data: C. neoformans MIC of CCCCCCCCCCCCCNCC(=O)N(CC(=O)N(CCCCN)CC(=O)N(CCN)CC(=O)N(CC(N)=O)Cc1ccc(I)cc1)Cc1ccc(I)cc1 [Compound 20] (H-[N(tridecyl)Gly][NBzl(4-I)Gly][Nlys][Gly(N-2-aminoethyl)][NBzl(4-I)Gly]-NH2) , then report it.
6.25

# return C. neoformans MIC of CCCCCCCCN(CCCCCCCC)CC(=O)N(CC(=O)N(CCCCN)CC(=O)N(CCN)CC(=O)N(CC(N)=O)C1CCCCC1)C1CCCCC1 [Compound 7] (X2-[Gly(N-cHex)][Nlys][Gly(N-2-aminoethyl)][Gly(N-cHex)]-NH2) (system: C. neoformans)
6.25
